Ref: paper PMC10926205

biological target: ERα (Homo sapiens, UniProt P03372); experiment: cell-based; type: cell-based; details: PRL-ERα EC50 (nM), array formation (DNA binding), ERα-GFP:PRL-HeLa, 1 h
Sequence (P03372 whole entry): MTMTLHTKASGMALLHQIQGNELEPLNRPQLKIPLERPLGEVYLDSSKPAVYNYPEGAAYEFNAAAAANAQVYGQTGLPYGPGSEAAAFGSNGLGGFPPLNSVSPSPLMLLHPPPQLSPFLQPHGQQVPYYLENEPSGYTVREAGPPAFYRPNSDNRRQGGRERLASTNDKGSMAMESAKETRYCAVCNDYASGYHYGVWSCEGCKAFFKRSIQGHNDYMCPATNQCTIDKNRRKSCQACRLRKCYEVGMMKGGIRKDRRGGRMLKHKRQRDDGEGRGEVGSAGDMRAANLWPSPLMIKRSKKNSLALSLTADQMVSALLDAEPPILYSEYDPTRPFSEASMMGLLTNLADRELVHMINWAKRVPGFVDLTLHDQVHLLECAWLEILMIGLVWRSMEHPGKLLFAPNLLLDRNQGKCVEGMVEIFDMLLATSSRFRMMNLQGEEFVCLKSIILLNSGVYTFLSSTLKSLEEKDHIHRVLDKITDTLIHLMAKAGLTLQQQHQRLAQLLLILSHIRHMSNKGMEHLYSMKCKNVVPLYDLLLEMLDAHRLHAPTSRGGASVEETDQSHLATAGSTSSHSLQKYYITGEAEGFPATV
Consider the following molecules; for each one, report its EC50.
# value in nM; strip the unit string

Req: State the recorded EC50 for this entry: "COc1cc(O)ccc1/C=C/C(=O)c1ccc(O)cc1"
Resp: 174

Req: EC50 lookup needed for "CC(C)=CCc1c(O)ccc2c1O[C@H](c1ccc(O)cc1)CC2=O" , thanks.
Resp: 1.28
